Tested target: Sodium-dependent serotonin transporter (Homo sapiens)
Sequence (P31645 whole entry): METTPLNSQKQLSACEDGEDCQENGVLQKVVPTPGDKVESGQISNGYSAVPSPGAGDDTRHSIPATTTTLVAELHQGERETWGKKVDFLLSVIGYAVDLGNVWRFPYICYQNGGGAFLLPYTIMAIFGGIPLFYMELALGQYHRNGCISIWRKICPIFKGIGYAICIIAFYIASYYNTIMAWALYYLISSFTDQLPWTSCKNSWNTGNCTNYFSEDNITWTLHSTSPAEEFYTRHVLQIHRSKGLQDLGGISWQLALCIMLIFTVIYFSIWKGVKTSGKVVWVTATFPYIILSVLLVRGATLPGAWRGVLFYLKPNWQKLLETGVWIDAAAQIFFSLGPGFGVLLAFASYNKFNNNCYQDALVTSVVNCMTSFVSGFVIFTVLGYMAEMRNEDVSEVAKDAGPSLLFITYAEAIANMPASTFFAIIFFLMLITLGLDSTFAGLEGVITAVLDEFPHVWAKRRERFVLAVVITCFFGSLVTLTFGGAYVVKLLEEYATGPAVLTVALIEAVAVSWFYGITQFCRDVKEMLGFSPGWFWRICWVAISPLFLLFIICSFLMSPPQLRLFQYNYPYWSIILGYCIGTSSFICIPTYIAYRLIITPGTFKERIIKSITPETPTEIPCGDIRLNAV
Test summary: Binding affinity to human SERT
pKi: −log10 of the molar value.
Label Satisfied for high-side pKi (at or above 8) and Not satisfied for low-side pKi (below it).

## Task Decide: pKi of `Clc1ccc([C@@H]2CCN[C@@H]3CCOC[C@@H]32)cc1Cl` >= 8?
## Result Not satisfied

## Task Decide: pKi of `COC[C@@H]1CN[C@H]2CC[C@]1(c1ccc(Cl)c(Cl)c1)C2` >= 8?
## Result Satisfied

## Task Decide: pKi of Clc1ccc(C2CCNCC23CCOCC3)cc1Cl (stereo in doubt; 171) >= 8?
## Result Satisfied

More entries:
## Task Decide: pKi of `COC[C@@H]1CN[C@@H]2CC[C@@]1(c1ccc(Cl)c(Cl)c1)C2` >= 8?
## Result Not satisfied

## Task Decide: pKi of Clc1ccc(C2CCNCC23CCOCC3)cc1Cl (racemic) >= 8?
## Result Satisfied

## Task Decide: pKi of Clc1ccc(C2CCNCC23COC3)cc1Cl (stereo not given) >= 8?
## Result Not satisfied

## Task Decide: pKi of `COC[C@H]1CN[C@H]2CC[C@]1(c1ccc(Cl)c(Cl)c1)C2` >= 8?
## Result Satisfied

## Task Decide: pKi of Clc1ccc(C2CCNCC23CCOCC3)cc1Cl (stereo in doubt; 172) >= 8?
## Result Satisfied

## Task Decide: pKi of `Clc1ccc([C@@H]2CCNC[C@@]23CCOC3)cc1Cl` >= 8?
## Result Satisfied

###

Tested target: Sodium-dependent serotonin transporter (Homo sapiens)
Test summary: Inhibition of human SERT expressed in HEK cells assessed as reduction of [3H]5-HT uptake preincubated for 10 mins followed by [3H]5-HT addition measured after 10 mins by scintillation counting method
Assay type: cell-based
Readout: IC50 (nM)
Supply the numeric figure in nM, leaving out any unit text.

Quick note, IC50 for c1ccc2cc([C@]34CNCC3C4)ccc2c1 (stereo partly specified) landed at 84

###

Tested target: Sodium-dependent noradrenaline transporter (Homo sapiens, UniProt P23975)
Sequence (P23975 whole entry): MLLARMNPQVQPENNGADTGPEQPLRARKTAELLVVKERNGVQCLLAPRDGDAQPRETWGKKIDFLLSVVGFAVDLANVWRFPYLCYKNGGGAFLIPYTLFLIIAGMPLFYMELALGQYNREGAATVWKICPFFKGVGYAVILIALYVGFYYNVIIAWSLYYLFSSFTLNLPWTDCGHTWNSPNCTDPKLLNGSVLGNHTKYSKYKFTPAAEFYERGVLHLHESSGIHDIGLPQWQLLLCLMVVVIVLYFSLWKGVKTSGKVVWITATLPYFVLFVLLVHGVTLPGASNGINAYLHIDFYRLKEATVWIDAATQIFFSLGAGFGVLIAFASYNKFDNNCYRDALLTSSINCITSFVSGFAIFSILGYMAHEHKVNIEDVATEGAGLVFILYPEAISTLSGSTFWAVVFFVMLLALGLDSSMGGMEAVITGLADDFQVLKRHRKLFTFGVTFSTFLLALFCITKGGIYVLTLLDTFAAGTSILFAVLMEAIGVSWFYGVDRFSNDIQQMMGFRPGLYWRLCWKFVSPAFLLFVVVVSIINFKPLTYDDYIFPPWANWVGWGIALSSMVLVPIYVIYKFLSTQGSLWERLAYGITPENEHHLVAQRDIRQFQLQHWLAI
Test summary: Inhibition of human NET expressed in HEK cells assessed as reduction of [3H]-NE uptake preincubated for 10 mins followed by […] measured after 10 mins by scintillation counting method
Type: cell-based
Readout: pIC50
Bear in mind: pIC50 is minus log10 of a mol/L concentration; give just that figure.

// assay Sodium-dependent noradrenaline transporter (Homo sapiens, UniProt P23975), entry c1ccc2cc([C@]34CNCC3C4)ccc2c1 (stereo partly specified) , pIC50 value = 8.22

###

Reported half-life values for the following compounds.
Test summary: Half life in human brain
Type: ADME, tissue-based
Supply the numeric figure in min, leaving out any unit text.

Quick note, half-life for COC(=O)[C@H](c1ccccc1)[C@H]1CCCCN1 (racemic) [DEXMETHYLPHENIDATE] landed at 90

Now for another entry.
Quick note, half-life for `COC(=O)[C@H]1[C@@H](OC(=O)c2ccccc2)C[C@@H]2CC[C@H]1N2C` landed at 20

###

// each record: one item and its log10(IC50) for Sodium-dependent serotonin transporter (Homo sapiens)
Scale: log10; quantity: IC50; unit before log: nM

Example entries begin here.
Quick note, log10(IC50) for `CCOC[C@H]1[C@@H](c2ccc(Cl)c(Cl)c2)C[C@@H]2CC[C@H]1N2C` landed at 1.04

Quick note, log10(IC50) for `COC[C@H]1[C@@H](c2ccc(Cl)c(Cl)c2)C[C@@H]2CC[C@H]1N2C` landed at 1.00

Quick note, log10(IC50) for `CN(C)C[C@]1(c2ccc(Cl)c(Cl)c2)CC[C@@](C)(O)CC1` landed at 1.53

Quick note, log10(IC50) for `COC[C@@]12CNCC[C@]1(c1ccc(Cl)c(Cl)c1)C2` landed at 0.96

Quick note, log10(IC50) for Cc1ccc(C23CNCC2C3)cc1 (configuration not stated) landed at 2.07

More entries:
Quick note, log10(IC50) for Cc1cc2cc(OC3C[C@H]4CC[C@@H](C3)N4)ccc2oc1=O (some centres not stated) landed at -0.14

Quick note, log10(IC50) for `CN1Cc2cc(-c3ccc(N)nn3)ccc2[C@H](c2ccc3ccccc3c2)C1` landed at 0.04
